# system.under.test: C3 purified from fresh human plasma (human, UniProt P01024 23-1663)
# Sequence (P01024 23-1663): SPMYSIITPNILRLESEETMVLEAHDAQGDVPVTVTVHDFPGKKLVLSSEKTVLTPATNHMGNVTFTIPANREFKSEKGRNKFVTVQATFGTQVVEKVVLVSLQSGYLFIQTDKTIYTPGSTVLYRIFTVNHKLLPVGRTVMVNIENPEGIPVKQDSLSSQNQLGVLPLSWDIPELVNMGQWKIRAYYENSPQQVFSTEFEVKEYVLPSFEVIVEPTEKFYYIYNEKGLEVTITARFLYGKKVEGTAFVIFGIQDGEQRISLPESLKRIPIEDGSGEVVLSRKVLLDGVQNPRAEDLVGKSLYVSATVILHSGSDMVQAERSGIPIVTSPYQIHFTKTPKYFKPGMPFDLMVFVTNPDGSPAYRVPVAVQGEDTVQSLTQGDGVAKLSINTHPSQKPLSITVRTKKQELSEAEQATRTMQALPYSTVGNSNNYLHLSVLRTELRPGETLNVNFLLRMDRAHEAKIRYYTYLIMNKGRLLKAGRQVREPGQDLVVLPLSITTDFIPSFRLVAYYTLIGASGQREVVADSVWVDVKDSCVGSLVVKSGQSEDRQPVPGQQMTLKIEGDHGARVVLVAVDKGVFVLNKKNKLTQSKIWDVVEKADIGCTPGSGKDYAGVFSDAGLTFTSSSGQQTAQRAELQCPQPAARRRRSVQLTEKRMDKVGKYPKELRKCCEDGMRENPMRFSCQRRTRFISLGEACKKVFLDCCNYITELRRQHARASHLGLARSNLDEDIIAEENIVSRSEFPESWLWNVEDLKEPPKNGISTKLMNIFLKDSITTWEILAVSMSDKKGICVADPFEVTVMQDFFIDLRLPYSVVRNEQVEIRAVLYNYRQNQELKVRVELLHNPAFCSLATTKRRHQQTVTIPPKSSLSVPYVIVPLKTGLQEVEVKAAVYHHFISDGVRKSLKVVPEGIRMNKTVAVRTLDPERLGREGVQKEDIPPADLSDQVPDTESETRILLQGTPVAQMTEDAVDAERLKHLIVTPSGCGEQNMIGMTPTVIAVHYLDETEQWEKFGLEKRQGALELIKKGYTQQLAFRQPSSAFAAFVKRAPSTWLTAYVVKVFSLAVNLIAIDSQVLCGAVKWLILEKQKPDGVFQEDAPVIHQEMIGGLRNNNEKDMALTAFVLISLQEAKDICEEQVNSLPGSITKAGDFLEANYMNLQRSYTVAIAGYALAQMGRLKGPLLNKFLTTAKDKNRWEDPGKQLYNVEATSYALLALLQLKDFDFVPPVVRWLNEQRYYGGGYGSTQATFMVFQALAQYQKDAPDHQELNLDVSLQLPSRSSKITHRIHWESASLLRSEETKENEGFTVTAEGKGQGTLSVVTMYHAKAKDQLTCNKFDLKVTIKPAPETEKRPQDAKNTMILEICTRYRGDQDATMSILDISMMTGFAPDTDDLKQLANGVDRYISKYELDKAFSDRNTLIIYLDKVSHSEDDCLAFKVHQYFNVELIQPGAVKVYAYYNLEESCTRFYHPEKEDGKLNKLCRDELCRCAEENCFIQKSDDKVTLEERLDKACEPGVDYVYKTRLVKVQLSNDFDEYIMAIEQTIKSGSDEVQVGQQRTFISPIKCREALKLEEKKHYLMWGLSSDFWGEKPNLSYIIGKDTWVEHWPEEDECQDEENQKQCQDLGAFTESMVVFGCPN
# assay.comment: cell-based or functional assay
Bridge positions count the residues as written; N and C are the ends. Square brackets hold non-standard residues; d marks the D form. NMeC = CN[C@@H](CS)C(=O)O
quantity.name: IC50-fold change relative to peptide 1 (fold)
Numbers only, in fold.

Enquiry: Recorded IC50-fold change relative to peptide 1 of Ac-ICVYQDWGAHR[NMeC]T-NH2 (disulfide 2-12; SMILES CC[C@H](C)[C@H](NC(C)=O)C(=O)N[C@H]1CSSC[C@@H](C(=O)N[C@H](C(N)=O)[C@@H](C)O)N(C)C(=O)[C@H](CCCNC(=N)N)NC(=O)[C@H](Cc2c[nH]cn2)NC(=O)[C@H](C)NC(=O)CNC(=O)[C@H](Cc2c[nH]c3ccccc23)NC(=O)[C@H](CC(=O)O)NC(=O)[C@H](CCC(N)=O)NC(=O)[C@H](Cc2ccc(O)cc2)NC(=O)[C@H](C(C)C)NC1=O) [Ac-I[CVYQDWGAHR(NMe)C]T-NH2] , please.
Return: 0.02

These data points were gathered from patent US20120178694A1.
